Can you tell me Ki for the items I'm about to list?
subject_of_test: Cathepsin S (Homo sapiens, UniProt P25774)
Sequence (P25774 115-331, species assumed): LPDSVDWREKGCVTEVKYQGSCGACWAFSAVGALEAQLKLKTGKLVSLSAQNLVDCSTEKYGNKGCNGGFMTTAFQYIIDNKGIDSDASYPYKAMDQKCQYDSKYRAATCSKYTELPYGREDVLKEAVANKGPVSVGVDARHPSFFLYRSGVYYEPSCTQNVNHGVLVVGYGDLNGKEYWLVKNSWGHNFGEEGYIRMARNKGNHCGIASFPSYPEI
method_summary: Cathepsin S inhibition, fluorogenic peptide substrate kinetic assay
Type: biochemical
assay_context: Table II; Cathepsin S inhibition constant, pH5.5; read-out: Ki Cat. S

Exercise: For the record `C[C@@H](CNc1ccc(OC(F)(F)F)cc1)NC(=O)[C@H](CC1CCCCC1)NC(=O)c1ccc(-c2ccc(F)cc2)o1` , what value of Ki is listed for Cathepsin S (Homo sapiens, UniProt P25774)?
Solution: < 0.1 µM

Exercise: For the record `C[C@@H](CNc1ccc(SC(F)(F)F)cc1)NC(=O)[C@H](CC1CCCCC1)NC(=O)c1ccc(-c2cccc(F)c2)o1` , what value of Ki is listed for Cathepsin S (Homo sapiens, UniProt P25774)?
Solution: < 0.1 µM

Exercise: For the record COc1ccc(NC(C)CNC(=O)[C@H](CC(C)C)NC(=O)c2cccc(C)c2)cc1 (mixture of isomers) , what value of Ki is listed for Cathepsin S (Homo sapiens, UniProt P25774)?
Solution: < 10 µM

Exercise: For the record `CC(C)(C)C[C@H](NC(=O)OC(C)(C)C)C(=O)N[C@@H](CCS(C)(=O)=O)CN1CCc2cc(F)ccc21` , what value of Ki is listed for Cathepsin S (Homo sapiens, UniProt P25774)?
Solution: < 0.1 µM

Exercise: For the record `O=C(NCCN1CCc2cc(F)ccc21)[C@H](CC1CCCCC1)NS(=O)(=O)c1scc(Br)c1Cl` , what value of Ki is listed for Cathepsin S (Homo sapiens, UniProt P25774)?
Solution: < 1 µM

Exercise: For the record `CS(=O)(=O)NCc1ccc(C(=O)N[C@@H](CC2CCCCC2)C(=O)NCCN2CCc3cc(F)ccc32)cc1` , what value of Ki is listed for Cathepsin S (Homo sapiens, UniProt P25774)?
Solution: < 0.1 µM

Exercise: For the record O=C(N[C@@H](CC1CCCCC1)C(=O)NCCN1CCc2cc(F)ccc21)C1CC(=O)N(Cc2ccccc2)C1 (stereo partly shown) , what value of Ki is listed for Cathepsin S (Homo sapiens, UniProt P25774)?
Solution: < 1 µM
